Record form. Attribute: pKd. Fill in for each entry.
Target: WT RBD (SARS-CoV-2 Wuhan-Hu-1 spike receptor binding domain) (SARS-CoV-2 (Wuhan-Hu-1), UniProt P0DTC2)
Test: BLI
Details: both partners purified
pKd is defined as minus the log10 of a concentration measured in mol/L.

// pKd value for C3057 (antibody, V domains shown, source: 293-6E cells, transfected, purified (Protein G Sepharose)) VH: QVQLVQSGGGLVQPGGSLRLSCEASGLSVSRNYMRWVRQAPGKGLEWVSLIYSGGSTFYADSVKGRFTISRDNSKNTLYLQMTSLRAEDTAVYYCARDLVDYGMDVWGHGTTVTVSS VL: DIQLTQSPSFLSASVGDRVTITCRASQGISNYLAWYQQKPGKAPQLLIYAASTLQSGVPSRFSGSGSGTEFTLTISSLQPEDFATYFCQQLNSDVITFGQGTRLEIK : 8.68

// pKd value for B1032 (antibody, V domains shown, source: 293-6E cells, transfected, purified (Protein G Sepharose)) VH: EVQLVESGGGLVQPGRSLRLSCEASGFTFEDFAMHWVRQAPGKGLEWVSGVSWNSGTIGYGDSVKGRFIIIRDNAKNSVYLQMNSLRPEDTAFYYCVKDMATYYKDISGTYGMDVWGQGTTVTVSS VL: SYELTQTPSVSVAPGQTARITCVGNNIGSESVHWYQQKSGRAPVLVVYDDSDRPSGIPERFSGSTSGTTATLIINRVEAGDEAGYYCQVWDASSDHVVFGGGTKLTVL : 9.28

// pKd value for C3123 (antibody, V domains shown, source: 293-6E cells, transfected, purified (Protein G Sepharose)) VH: QVQLQESGPGLVKPSQTLSLTCAVSGDSVSRGGFYWTWIRQLPGMGLECIGYIDYSGSTHYNPSLKSRVTISLDTSNNQFSLKMTSVTAADTALYYCARGAVPGIGWFDPWGQGTLVTVSS VL: SYELTQPPSVSVAPGKTASISCGGNNIATKSVHWYQQKPGQAPALVIYYDSDRPSGIPERFSGSNSGNTATLTISRVEAGDEAAYYCQVWESSGDHVVFGGGTKLTVL : 8.81

// pKd value for B2014 (antibody, V domains shown, source: 293-6E cells, transfected, purified (Protein G Sepharose)) VH: QVQLVQSGAELKRPGASVKVSCKASGYTFSDYHMNWVRQAPGQGLEWMGIINPSGGGASYPQKFQGRVTMTRDTSTSTVFMQLNSLTYEDTAVYYCARGTPPSRGWYGGFDNWGQGTLVTVSS VL: QSVLTQPPSVSGAPGQRITISCTGSTSNIGAGYDVQWYQQLPGTAPKLLIFDNNNRPSGVPDRFSGSKSGTSASLAITGLQAEDEADYYCQSFDSTLSGSTFVFGPGTKVTVL : 8.91
